Subject Of Test: T1, murine IL-21R extracellular domain His-Flag fusion protein (murine, UniProt Q9JHX3 20-237)
T1 construct: Biotinylated in the ELISAs; also called mIL-21R-H/F; murine IL-21R-H/F
Test Details: competition ELISA; competitor plate-bound 18A5 IgG
Metric: pIC50
In simple prose, pIC50 is minus the logarithm base ten of a concentration in moles per litre.

Reference set (2 entries):
{"Binder": "scFv L10 (scFv) scFv: QVQLQESGPGLVKTSETLSLTCAVSGYSISSGYYWGWIRQPPGKGLEWIGSISHTGNTYYNPPLKSRVTISVDTSKNQFSLKLSSVTAADTAVYYCARGGGISRPEYWGKGTLVTVSSGGGGSGGGGSGGGGSALSSELTQDPPVSVALGQTVTLTCQGDSLRTYYASWYQQKSGQAPILLLYGKHKRPSGIPDRFSGSTSGDTASLTITGAQAEDEADYYCISRSIYGNPHVLFGGGTQLTVL", "Result Number": 7.40}
{"Binder": "scFv L20 (scFv) scFv: QVQLQESGPGLVKTSETLSLTCAVSGYSISSGYYWGWIRQPPGKGLEWIGSISHTGNTYYNPPLKSRVTISVDTSKNQFSLKLSSVTAADTAVYYCARGGGISRPEYWGKGTLVTVSSGGGGSGGGGSGGGGSALSSELTQDPPVSVALGQTVTLTCQGDSLRTYYASWYQQKSGQAPILLLYGKHKRPSGIPDRFSGSTSGDTASLTITGAQAEDEADYYCVSRSAKGNPHVLFGGGTQLTVL", "Result Number": 8.30}

Any idea what pIC50 was measured for scFv L12 (scFv) scFv: QVQLQESGPGLVKTSETLSLTCAVSGYSISSGYYWGWIRQPPGKGLEWIGSISHTGNTYYNPPLKSRVTISVDTSKNQFSLKLSSVTAADTAVYYCARGGGISRPEYWGKGTLVTVSSGGGGSGGGGSGGGGSALSSELTQDPPVSVALGQTVTLTCQGDSLRTYYASWYQQKSGQAPILLLYGKHKRPSGIPDRFSGSTSGDTASLTITGAQAEDEADYYCVARGTRGNPHVLFGGGTQLTVL ?
8.10
